The reported measurements were obtained from patent US9527876B2.

- Experimental Protocol: in vivo
- Conditions Used: rat, iv, 2 mg/kg
Measured Parameter: clearance
Quick note: unit goes after the number.

// field: clearance; key: COc1ccc(CN=c2[nH]c(N3CCC[C@H]3CO)ncc2C(=O)NCc2ncccn2)cc1Cl [Avanafil] ; value = 88.5 mL/min/kg

----------
- Experimental Protocol: Rat pharmacokinetics after intravenous injection (LC-MS/MS of plasma)
- Conditions Used: rat, plasma, iv, 1 mg/kg, Concentration of Compound 1 in rat body, Rat 1, IV 1 mg/kg, 0.083 h, Rat 1
Measured Parameter: concentration at 0.083 h (ng/mL)
Express your answer in ng/mL, writing the number without its unit.

Lab note: measured concentration at 0.083 h of COc1ccc(CNc2nc(N3CC4CC4C3)ncc2C(=O)N[C@H]2CC[C@H](OP(=O)([O-])[O-])CC2)cc1Cl.[Na+].[Na+] (stereo partly shown) [Compound 1, phosphate disodium salt] was 162

----------
- Experimental Protocol: Solubility of Compound 1 in buffer solutions of different pH (visual observation)
- Assay type: physicochemical
- Conditions Used: aqueous buffer, thermodynamic from solid; buffer solution pH 6; 2 mg in 40 μL
Measured Parameter: solubility at 5 min

COc1ccc(CNc2nc(N3CC4CC4C3)ncc2C(=O)N[C@H]2CC[C@H](OP(=O)([O-])[O-])CC2)cc1Cl.[Na+].[Na+] (stereo partly shown) has a reported solubility at 5 min of ≥ 50 mg/mL

----------
- Experimental Protocol: Solubility of Compound 1 in buffer solutions of different pH (visual observation)
- Assay type: physicochemical
- Conditions Used: aqueous buffer, thermodynamic from solid; buffer solution pH 9; 2 mg in 40 μL
Measured Parameter: solubility at 5 min

Short answer for COc1ccc(CNc2nc(N3CC4CC4C3)ncc2C(=O)N[C@H]2CC[C@H](OP(=O)([O-])[O-])CC2)cc1Cl.[Na+].[Na+] (stereo partly shown) : solubility at 5 min was ≥ 50 mg/mL

----------
- Experimental Protocol: Solubility of Compound 1 in buffer solutions of different pH (visual observation)
- Assay type: physicochemical
- Conditions Used: aqueous buffer, thermodynamic from solid; buffer solution pH 5; 2 mg in 40 μL
Measured Parameter: solubility at 5 min

response.value for COc1ccc(CNc2nc(N3CC4CC4C3)ncc2C(=O)N[C@H]2CC[C@H](OP(=O)([O-])[O-])CC2)cc1Cl.[Na+].[Na+] (stereo partly shown) (field: solubility at 5 min) = ≥ 50 mg/mL

----------
- Experimental Protocol: Rat pharmacokinetics after intravenous injection (LC-MS/MS of plasma)
- Conditions Used: rat, plasma, iv, 1 mg/kg, Concentration of Compound 1 in rat body, Rat 2, IV 1 mg/kg, 0.083 h, Rat 2
Measured Parameter: concentration at 0.083 h (ng/mL)
Please respond with the number in ng/mL and leave the unit unwritten.

Memo: COc1ccc(CNc2nc(N3CC4CC4C3)ncc2C(=O)N[C@H]2CC[C@H](OP(=O)([O-])[O-])CC2)cc1Cl.[Na+].[Na+] (stereo partly shown) [Compound 1, phosphate disodium salt] , reported concentration at 0.083 h: 183

----------
- Experimental Protocol: Solubility of Compound 1 in buffer solutions of different pH (visual observation)
- Assay type: physicochemical
- Conditions Used: aqueous buffer, thermodynamic from solid; buffer solution pH 8; 2 mg in 40 μL
Measured Parameter: solubility at 5 min

// solubility at 5 min lookup, compound = COc1ccc(CNc2nc(N3CC4CC4C3)ncc2C(=O)N[C@H]2CC[C@H](OP(=O)([O-])[O-])CC2)cc1Cl.[Na+].[Na+] (stereo partly shown) [Compound 1] , result: ≥ 50 mg/mL
